Collected set of IC50 measured with UniProt:Q9Y5X9 across studies.
assay.metric: IC50 (nM)

{"molecular.string": "CS(=O)(=O)NCc1nnc(Cc2nc3ccc(-c4ccccc4)cc3s2)o1", "measured.target": "UniProt:Q9Y5X9", "IC50 (nM)": 73}

[a] N#CC1(NC(=O)Cc2nnc(Cc3nc4ccc(Cc5ccc(F)cc5)cc4s3)o2)CC1
[b] Cn1ccc(C(=O)NCc2ccccc2N2CCCC2)c(O)c1=O
[c] O=C(c1nnc(NCCc2ccc(Cl)cc2)o1)c1nc2ccc(-c3ccc(F)cc3)cc2s1
Descending sort on IC50 required. Reply format: the labels, ordered as requested.
b, a, c
(b: 6450 nM, a: 14 nM, c: 6.6 nM)

[I] Cn1ccc(C(=O)NCc2ccc(Oc3ccc(F)cc3)cc2)c(O)c1=O
[II] NS(=O)(=O)NCCc1nnc(C(=O)c2nc3ccc(-c4ccccc4)cc3s2)o1
[III] CN1CC(C(=O)NCCc2ccc(Cl)cc2)=C(O)C1=O
[IV] CN(Cc1nnc(C(=O)c2nc3ccc(-c4ccccc4)cc3s2)o1)S(N)(=O)=O
// sort entries: IC50, high to low Form entry: ranked labels (order as requested).
III, II, IV, I
